Below is a list of entries, each paired with its recorded DC50 value.
Target: ER (Homo sapiens (Human), UniProt P03372)
Sequence (P03372 whole entry): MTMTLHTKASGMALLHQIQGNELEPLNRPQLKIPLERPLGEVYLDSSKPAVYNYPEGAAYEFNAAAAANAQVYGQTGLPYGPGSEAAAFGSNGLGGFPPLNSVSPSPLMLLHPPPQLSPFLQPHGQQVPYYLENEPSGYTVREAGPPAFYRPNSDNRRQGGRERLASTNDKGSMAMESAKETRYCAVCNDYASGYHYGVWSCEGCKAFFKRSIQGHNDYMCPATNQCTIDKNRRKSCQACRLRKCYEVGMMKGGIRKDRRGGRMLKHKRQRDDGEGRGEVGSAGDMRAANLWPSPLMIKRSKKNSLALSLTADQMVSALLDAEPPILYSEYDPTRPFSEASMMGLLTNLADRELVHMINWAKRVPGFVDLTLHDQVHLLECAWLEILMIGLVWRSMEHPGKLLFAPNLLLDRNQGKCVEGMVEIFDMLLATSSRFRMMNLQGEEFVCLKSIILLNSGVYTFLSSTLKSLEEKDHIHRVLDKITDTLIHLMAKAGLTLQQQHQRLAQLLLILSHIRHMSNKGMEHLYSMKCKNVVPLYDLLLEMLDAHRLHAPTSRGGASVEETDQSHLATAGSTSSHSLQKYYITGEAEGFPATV
Assay: In-cell western blot analysis of relative ER percentage (Compounds B1-B278)
Type: cell-based
Settings: ER degradation, 16 hours, read-out: ICW DC50
Protocol: In-cell western blot analysis. Cells are seeded in multi-well plates (e.g., at 40,000 or 10,000 cells/well). Diluted compounds at certain concentration are added (final 0.5% DMSO) and cells are incubated for […] (e.g., 16 hours). Formaldehyde (e.g., PBS:FA=9:1) is added and followed by washing with PBS. The cells are blocked with Licor blocking buffer (Li-Cor). […]

| Compound | DC50 |
| --- | --- |
| C[C@@H]1Cc2c([nH]c3ccccc23)[C@@H](c2c(F)cc(N3CCC4(CC3)CN(C(=O)CN3CCN5c6ccc7c(c6OC[C@H]5C3)CN(C3CCC(=O)NC3=O)C7=O)C4)cc2F)N1CC(F)F (stereo partly drawn) [Compound B174] | < 0.01 µM |
| C[C@@H]1Cc2c([nH]c3ccccc23)[C@@H](c2c(F)cc(N3CCC4(CC3)OCC(CN3CCN5c6cc7c(cc6OC[C@@H]5C3)C(=O)N(C3CCC(=O)NC3=O)C7)CO4)cc2F)N1CC(F)(F)CO (stereo partly drawn) [Compound B270] | 0.01 to 0.1 µM |
| C[C@@H]1Cc2c([nH]c3ccccc23)[C@@H](c2cnc(N3CC4(CCC(CN5CCN6c7ccc8c(c7OC[C@H]6C5)CN(C5CCC(=O)NC5=O)C8=O)CC4)C3)nc2)N1CC(F)(F)CO (stereo partly drawn) [Compound B154] | 0.01 to 0.1 µM |

---

biological target: UniProtKB P03372; assay: In-cell western blot analysis of relative ER percentage (Compounds B1-B278); assay type: cell-based; settings: ER degradation, 16 hours, read-out: ICW DC50

| Molecule | DC50 |
| --- | --- |
| C[C@@H]1Cc2c([nH]c3ccccc23)[C@@H](c2cnc(N3CCC4(CC3)CC(CN3CCC5(CC3)COc3c5ccc5c3CN(C3CCC(=O)NC3=O)C5=O)C4)nc2)N1CC(F)F (some centres unmarked) | 10 to 100 nM |
| C[C@@H]1Cc2c([nH]c3ccccc23)[C@@H](c2cnc(N3CC4(CCC(N5CCN6c7ccc8c(c7OC[C@H]6C5)CN(C5CCC(=O)NC5=O)C8=O)CC4)C3)nc2)N1CC(F)F (some centres unmarked) | > 100 nM |
| C[C@@H]1Cc2c([nH]c3ccccc23)[C@@H](c2c(F)cc(N3CCC4(CC3)CC(CN3CCN5c6ccc7c(c6OC[C@H]5C3)CN(C3CCC(=O)NC3=O)C7=O)CO4)cc2F)N1CC(F)(F)CO (some centres unmarked) | 10 to 100 nM |
| C[C@@H]1Cc2c([nH]c3ccccc23)[C@@H](c2cnc(N3CCC4(CC3)CC(N3CCN5c6ccc7c(c6OC[C@H]5C3)CN(C3CCC(=O)NC3=O)C7=O)CO4)nc2)N1CC(C)(C)F (some centres unmarked) | 10 to 100 nM |
| C[C@@H]1Cc2c([nH]c3ccccc23)[C@@H](c2cnc(N3CCC(CN4CCN5c6ccc7c(c6OC[C@@H]5C4)CN(C4CCC(=O)NC4=O)C7=O)CC3)nc2)N1CC(C)(C)F (some centres unmarked) | > 100 nM |

---

target: ER in MCF-7 cells (Homo sapiens (Human), UniProt P03372); experiment: In-cell western (ICW) ER degradation assay in MCF-7 cells (Compounds A1-A70); assay type: cell-based; settings: maximal ER degradation, MCF-7 cells, 16 hrs treatment
Sequence (P03372 whole entry): as above
Measurement name: MCF7 ICW Dmax (%)

| Molecule | Measurement name | Recorded measurement |
| --- | --- | --- |
| COc1cc(N2CCC(CN3CCN4c5cc6c(cc5OC[C@@H]4C3)C(=O)N([C@H]3CCC(=O)NC3=O)C6)CC2)ccc1[C@@H]1c2[nH]c3ccccc3c2C[C@@H](C)N1CC(F)F [Compound A29] | MCF7 ICW Dmax (%) | B (“B”: >50% and <75%) |
| COc1cc(N2CCC(CN3CCN4c5ccc6c(c5OC[C@@H]4C3)CN([C@H]3CCC(=O)NC3=O)C6=O)CC2)ccc1[C@@H]1c2[nH]c3ccccc3c2C[C@@H](C)N1CC(F)F [Compound A12] | MCF7 ICW Dmax (%) | B (“B”: >50% and <75%) |

---

target: ER in MCF-7 cells (Homo sapiens (Human)); assay: In-cell western (ICW) ER degradation assay in MCF-7 cells (Compounds A1-A70); assay type: cell-based; settings: MCF7, maximal ER degradation, MCF-7 cells, 16 hrs treatment; read-out: MCF7 ICW Dmax (%)
Below is a list of entries, each paired with its recorded Dmax value.
Measurement name: Dmax

| Compound | Measurement name | Recorded measurement |
| --- | --- | --- |
| C[C@@H]1Cc2c([nH]c3ccccc23)[C@H](c2cnc(N3CCC4(CC3)C[C@@H](CN3CCN5c6ccc(C(=O)N[C@H]7CCC(=O)NC7=O)nc6OC[C@H]5C3)CO4)nc2)N1CC(F)F | Dmax | 50 to 75% |
| COc1cc(N2CCC(CN3CCC(c4ccc(C(=O)NC5CCC(=O)NC5=O)nc4)CC3)CC2)ccc1[C@@H]1c2[nH]c3ccccc3c2C[C@@H](C)N1CC(F)F (stereo partly shown) | Dmax | 25 to 50% |
| C[C@@H]1Cc2c([nH]c3ccccc23)[C@@H](c2cnc([C@H]3CC[C@H](C(=O)N4CCC(N5Cc6cc7c(cc6C5)C(=O)N(C5CCC(=O)NC5=O)C7)CC4)CC3)nc2)N1CC(F)F (stereo partly shown) | Dmax | < 25% |
| COc1cc(N2CCC(CN3CCN4c5ccc(C(=O)NC6CCC(=O)NC6=O)nc5OC[C@H]4C3)CC2)ccc1[C@H]1c2[nH]c3ccccc3c2C[C@H](C)N1CC(F)F (stereo partly shown) | Dmax | 50 to 75% |
| C[C@H]1Cc2c([nH]c3ccccc23)[C@H](c2cnc(N3CCC4(CC3)C[C@H](CN3CCN5c6ccc7c(c6OC[C@@H]5C3)CN([C@@H]3CCC(=O)NC3=O)C7=O)CO4)nc2)N1CC(F)F | Dmax | 50 to 75% |
| C[C@@H]1Cc2c([nH]c3ccccc23)[C@@H](c2cnc(N3CCC4(CC3)C[C@@H](CN3CCC(c5ccc(N[C@@H]6CCC(=O)NC6=O)cc5)CC3)CO4)nc2)N1CC(F)F | Dmax | 50 to 75% |
| COc1cc(N2CCC(CN3CCC(c4ccc5c(c4)n(C)c(=O)n5C4CCC(=O)NC4=O)CC3)CC2)ccc1[C@@H]1c2[nH]c3ccccc3c2C[C@@H](C)N1CC(F)F (stereo partly shown) | Dmax | 25 to 50% |
| C[C@H]1Cc2c([nH]c3ccccc23)[C@H](c2ccc(N3CCC(CN4CCN5c6ccc7c(c6OC[C@@H]5C4)CN([C@@H]4CCC(=O)NC4=O)C7=O)CC3)cn2)N1CC(F)(F)F | Dmax | 25 to 50% |
| COc1cc(N2CCC3(CCN(C(=O)CN4Cc5cc6c(cc5C4)C(=O)N(C4CCC(=O)NC4=O)C6=O)CC3)CC2)ccc1[C@@H]1c2[nH]c3ccccc3c2C[C@@H](C)N1CC(F)F (stereo partly shown) | Dmax | 50 to 75% |
| C[C@@H]1Cc2c([nH]c3ccccc23)[C@@H](c2cnc(N3CCC4(CC3)C[C@@H](CN3CCN5c6ccc(C(=O)N[C@H]7CCC(=O)NC7=O)nc6OC[C@H]5C3)CO4)nc2)N1CC(F)F | Dmax | 50 to 75% |

---

Below is a list of entries, each paired with its recorded IC50 value.
target: CRBN/DDB1 (Homo sapiens (Human)); assay type: binding; conditions: His tagged CRBN+DDB-DLS7+CXU4, Cy5-labeled Thalidomide probe, one hour incubation; read-out: CRBN HTRF IC50
Sequence (Q96SW2 whole entry): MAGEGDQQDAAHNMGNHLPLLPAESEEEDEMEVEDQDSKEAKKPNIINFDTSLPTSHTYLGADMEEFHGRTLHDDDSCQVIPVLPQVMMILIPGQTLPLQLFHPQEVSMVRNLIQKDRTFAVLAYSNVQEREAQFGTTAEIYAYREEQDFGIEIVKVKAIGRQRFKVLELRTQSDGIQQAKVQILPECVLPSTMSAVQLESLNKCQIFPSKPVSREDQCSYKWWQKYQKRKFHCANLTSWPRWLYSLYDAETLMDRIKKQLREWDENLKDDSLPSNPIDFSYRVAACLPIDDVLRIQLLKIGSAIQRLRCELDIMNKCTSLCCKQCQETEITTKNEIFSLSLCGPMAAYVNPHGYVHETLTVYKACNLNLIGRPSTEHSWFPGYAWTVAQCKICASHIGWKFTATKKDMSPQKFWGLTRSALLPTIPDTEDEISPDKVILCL
Sequence (Q16531 whole entry partner): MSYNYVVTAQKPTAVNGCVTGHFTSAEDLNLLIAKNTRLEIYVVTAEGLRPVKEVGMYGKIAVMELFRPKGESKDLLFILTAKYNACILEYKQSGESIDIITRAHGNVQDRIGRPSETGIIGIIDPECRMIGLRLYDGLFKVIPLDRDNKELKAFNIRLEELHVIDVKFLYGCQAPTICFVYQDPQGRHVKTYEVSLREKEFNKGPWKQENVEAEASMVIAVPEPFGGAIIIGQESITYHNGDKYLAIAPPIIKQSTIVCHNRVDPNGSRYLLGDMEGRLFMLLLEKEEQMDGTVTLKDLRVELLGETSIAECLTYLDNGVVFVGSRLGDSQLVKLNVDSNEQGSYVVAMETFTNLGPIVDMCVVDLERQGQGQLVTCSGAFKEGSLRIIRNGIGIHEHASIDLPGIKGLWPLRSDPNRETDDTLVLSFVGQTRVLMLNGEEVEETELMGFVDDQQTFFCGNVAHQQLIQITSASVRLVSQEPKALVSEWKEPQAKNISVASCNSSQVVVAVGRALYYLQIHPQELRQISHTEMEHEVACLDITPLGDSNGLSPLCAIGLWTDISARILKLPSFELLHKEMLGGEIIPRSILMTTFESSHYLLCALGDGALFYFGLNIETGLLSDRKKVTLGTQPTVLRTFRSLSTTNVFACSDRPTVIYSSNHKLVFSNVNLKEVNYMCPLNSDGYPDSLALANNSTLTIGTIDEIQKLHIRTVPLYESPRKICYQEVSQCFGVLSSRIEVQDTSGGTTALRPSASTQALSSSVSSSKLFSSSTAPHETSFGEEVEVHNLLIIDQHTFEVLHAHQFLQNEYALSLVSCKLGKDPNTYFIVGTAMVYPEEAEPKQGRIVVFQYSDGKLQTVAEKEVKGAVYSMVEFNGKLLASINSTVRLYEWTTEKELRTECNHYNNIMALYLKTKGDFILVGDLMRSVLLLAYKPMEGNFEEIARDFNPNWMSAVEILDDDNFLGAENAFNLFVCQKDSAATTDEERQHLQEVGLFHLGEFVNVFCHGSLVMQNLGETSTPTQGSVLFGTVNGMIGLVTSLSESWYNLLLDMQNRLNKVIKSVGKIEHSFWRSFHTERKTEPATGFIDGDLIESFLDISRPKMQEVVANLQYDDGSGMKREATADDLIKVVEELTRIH
Measurement name: IC50

| Structure notation | Recorded measurement |
| --- | --- |
| C[C@H]1Cc2c([nH]c3ccccc23)[C@H](c2cnc(N3CCC4(CC3)C[C@H](CN3CCC(c5ccc(N[C@H]6CCC(=O)NC6=O)cc5)CC3)CO4)nc2)N1CC(F)F | 500 to 5000 nM |
| C[C@@H]1Cc2c([nH]c3ccccc23)[C@@H](c2cnc(N3CCC4(CC3)C[C@@H](CN3CCN5c6ccc(C(=O)N[C@H]7CCC(=O)NC7=O)nc6OC[C@H]5C3)CO4)nc2)N1CC(F)F | 500 to 5000 nM |
| C[C@@H]1Cc2c([nH]c3ccccc23)[C@@H](c2ccc(N3CCC(CN4CCN5c6ccc7c(c6OC[C@@H]5C4)CN([C@H]4CCC(=O)NC4=O)C7=O)CC3)nc2)N1CC(F)F | 50 to 500 nM |

---

molecular target: ER (Homo sapiens (Human), UniProt P03372); experiment: Western blot analysis (Compounds B1-B278); format: cell-based; details: ER degradation by traditional Western blot; DC50 classes

| Molecule | Target desc | Traditional Western Degradation Potency |
| --- | --- | --- |
| C[C@@H]1Cc2c([nH]c3ccccc23)[C@@H](c2c(F)cc(N3CCC4(CCN(CC(=O)N5Cc6cc7c(cc6C5)C(=O)N(C5CCC(=O)NC5=O)C7=O)C4)C3)cc2F)N1CC(F)F (some centres unmarked) | ER (Homo sapiens (Human), UniProt P03372) | C (“C”: >100 nM) |
| C[C@@H]1Cc2c([nH]c3ccccc23)[C@@H](c2cnc(N3CCC4(CC3)CN(C(=O)CN3Cc5cc6c(cc5C3)C(=O)N(C3CCC(=O)NC3=O)C6=O)C4)nc2)N1CC(F)F (some centres unmarked) | ER (Homo sapiens (Human), UniProt P03372) | A (“A”: <10 nM) |
| C[C@@H]1Cc2c([nH]c3ccccc23)[C@@H](c2c(F)cc(N3CC(C(=O)N4CCC(N5Cc6cc7c(cc6C5)C(=O)N(C5CCC(=O)NC5=O)C7=O)CC4)C3)cc2F)N1CC(F)F (some centres unmarked) [Compound B209] | ER (Homo sapiens (Human), UniProt P03372) | C (“C”: >100 nM) |
| C[C@@H]1Cc2c([nH]c3ccccc23)[C@@H](c2c(F)cc(N3CCC(N4CCC(CC(=O)N5Cc6cc7c(cc6C5)C(=O)N(C5CCC(=O)NC5=O)C7=O)CC4)CC3)cc2F)N1CC(F)F (some centres unmarked) | ER (Homo sapiens (Human), UniProt P03372) | A (“A”: <10 nM) |
| C[C@@H]1Cc2c([nH]c3ccccc23)[C@@H](c2c(F)cc(N3CCC(N4CCN(CC(=O)N5Cc6cc7c(cc6C5)C(=O)N(C5CCC(=O)NC5=O)C7)CC4)CC3)cc2F)N1CC(F)F (some centres unmarked) | ER (Homo sapiens (Human), UniProt P03372) | A (“A”: <10 nM) |
